Tested on: 293T cells
Experiment: Growth assay (cytotoxicity)
Assay type: cell-based
Conditions: 0.5556 uM, 2 day incubation
Where a name gives a salt, the structure may show the parent alone.
REPORTED_PROPERTY: % Growth at 0.5556 uM

>>> obs_value("CCc1cc(-c2nnc(NS(=O)(=O)c3ccccc3Cl)cc2C)cc2cnc(N[C@H]3CC[C@H](N)CC3)nc12.O=CO")
"D (D: >75% to ≤100%)"
>>> obs_value("CCc1cc(-c2ccc(NS(=O)(=O)c3ccccc3Cl)nc2OC)cc2cnc(N[C@H]3CC[C@H](N)CC3)nc12 [37; HCl ^]")
"D (D: >75% to ≤100%)"

====

Here's a batch of compounds along with measured IC50 for IRE1a (Homo sapiens, UniProt O75460).

Field: example entries. Status: answers known.
>>> obs_value("COc1cc(-c2cc(NS(=O)(=O)c3ccccc3Cl)nn2C)cc2cnc(N[C@H]3CC[C@H](N)CC3)nc12")
"50 to 100 nM"
>>> obs_value("CCc1cc(-c2cnc(NS(=O)(=O)c3ccccc3Cl)c(F)c2)cc2cnc(N[C@H]3CC[C@H](N)CC3)nc12.O=CO")
"≤ 5 nM"

# evaluate next
Q. Requested read-out: IC50. Entry: CCc1cc(NS(=O)(=O)c2ccccc2Cl)ccc1-c1cc(CC)c2nc(N[C@H]3CC[C@H](N)CC3)ncc2c1.O=CO
A. ≤ 5 nM

====

Test system: 293T cells
Assay: Growth assay (cytotoxicity)
Type: cell-based
Details: 0.5556 uM, 2 day incubation
REPORTED_PROPERTY: % Growth at 0.5556 uM

>>> obs_value("CCc1cc(-c2cc(F)c(NS(=O)(=O)c3ccccc3Cl)cc2C)cc2cnc(N[C@H]3CC[C@H](N)CC3)nc12.O=CO [21; Formic Acid]")
"D (D: >75% to ≤100%)"
>>> obs_value("CCc1cc(-c2nnc(NS(=O)(=O)c3ccccc3Cl)cc2OC)cc2cnc(N[C@H]3CC[C@H](N)CC3)nc12.O=CO [65; Formic Acid]")
"D (D: >75% to ≤100%)"
>>> obs_value("CCc1cc(-c2ncc(NS(=O)(=O)c3ccccc3Cl)cc2F)cc2cnc(N[C@H]3CC[C@H](N)CC3)nc12.O=CO [52; Formic Acid]")
"D (D: >75% to ≤100%)"

====

Test system: 293T cells
Assay: Growth assay (cytotoxicity)
Format: cell-based
Conditions: 0.185 uM, 2 day incubation
Experimental: A growth assay was performed to evaluate the compounds disclosed herein for cytotoxicity. Briefly, 5,000,000 293T cells were resuspended in 18 mL of cDMEM for a final concentration of 277,777 cells/mL. […] Absorbance was then measured at about […] (lower for more acidic media) and about […] (higher for more acidic media).
REPORTED_PROPERTY: % Growth at 0.185 uM

Field: example entries. Status: answers known.
>>> obs_value("CCc1cc(-c2nnc(NS(=O)(=O)c3ccccc3Cl)cc2OC)cc2cnc(N[C@H]3CC[C@H](N)CC3)nc12.O=CO")
"D (D: >75% to ≤100%)"
>>> obs_value("CCc1cc(-c2ccc(NS(=O)(=O)c3ccccc3Cl)cc2OC)cc2cnc(N[C@H]3CC[C@H](N)CC3)nc12.O=CO")
"D (D: >75% to ≤100%)"
>>> obs_value("CCc1cc(-c2ccc(NS(=O)(=O)c3ccccc3Cl)nc2)cc2cnc(N[C@H]3CC[C@H](N)CC3)nc12.O=CO")
"D (D: >75% to ≤100%)"
>>> obs_value("CCc1cc(-c2ccc(NS(=O)(=O)c3ccccc3Cl)cn2)cc2cnc(N[C@H]3CC[C@H](N)CC3)nc12.O=CO")
"D (D: >75% to ≤100%)"
>>> obs_value("CCc1cc(-c2ccc(NS(=O)(=O)c3ccccc3Cl)c(F)c2C)cc2cnc(N[C@H]3CC[C@H](N)CC3)nc12.O=CO")
"D (D: >75% to ≤100%)"

Q. What % Growth at 0.185 uM appears in the records for this molecule with 293T cells? CCc1cc(-c2ccc(NS(=O)(=O)c3ccccc3Cl)c(C)c2C)cc2cnc(N[C@H]3CC[C@H](N)CC3)nc12.O=CO
A. D (D: >75% to ≤100%)

Q. What % Growth at 0.185 uM appears in the records for this molecule with 293T cells? CCc1cc(NS(=O)(=O)c2ccccc2Cl)ccc1-c1cc(CC)c2nc(N[C@H]3CC[C@H](N)CC3)ncc2c1.O=CO
A. D (D: >75% to ≤100%)
